Molecular target: T1, CTNI quality control recombinant protein (PK2-CTNI-1, 170120, produced by the applicant) (human, UniProt P19429 2-210, limits assumed)
T1 construct: also called cardiac troponin I
T1 sequence (P19429 2-210 limits assumed): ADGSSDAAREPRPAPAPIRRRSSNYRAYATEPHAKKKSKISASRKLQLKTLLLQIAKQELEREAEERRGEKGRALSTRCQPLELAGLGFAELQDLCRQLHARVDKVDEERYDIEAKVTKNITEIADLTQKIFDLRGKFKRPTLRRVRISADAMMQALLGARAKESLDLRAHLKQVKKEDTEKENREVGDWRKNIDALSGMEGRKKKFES
Assay: AMC sensor kinetics, antibody captured, cTnI analyte
For each entry below, report its Kd value.
The figure you give is taken to be in nM; do not add the unit.

The measured Kd associated with Mutation 1-26 (antibody, V domains shown, built as for Mutation 1) VH: EVQLQQSGAELVKPGASVKLSCTASGFNIKDYFMHWMKQRTEQGLDWIGRIDPEDGETKYAPEFQGKATITADTSSNTAYLQLSTLTSEDTAVYYCARYYSSYLPFVYWGQGTLVTASA VL: DVVMTQTPLSLSVSLGDQASISCRSSQSILYSNRHTYLHWYLQKPGQSPKLLIFQLSNRFSGVPDRFSGSGSGTDFTLKINRVEAEDLGVYFCSQSTHLPFTFGSGTKLEIKR reads 0.692

Reported Kd ( Mutation 1-42 (antibody, V domains shown, built as for Mutation 1) VH: EVQLQQSGAELVKPGASVKLSCTASGFNLKDYFMHWMKQRTEQGLDWIGRIDPEDGETKYAPEFQGKATITADTSSNTAYLQLSTLTSEDTAVYYCARYYSSYLPFVYWGQGTLVTASA VL: DVVMTQTPLSLSVSLGDQASISCRSSQSLLYSNRHTYLHWYLQKPGQSPKLLIFQLSNRFSGVPDRFSGSGSGTDFTLKINRVEAEDLGVYFCSQSTHLPYTFGSGTKLEIKR ) = 0.347
